- test.target: TYK2 (Homo sapiens, UniProt P29597)
- Sequence (P29597 whole entry): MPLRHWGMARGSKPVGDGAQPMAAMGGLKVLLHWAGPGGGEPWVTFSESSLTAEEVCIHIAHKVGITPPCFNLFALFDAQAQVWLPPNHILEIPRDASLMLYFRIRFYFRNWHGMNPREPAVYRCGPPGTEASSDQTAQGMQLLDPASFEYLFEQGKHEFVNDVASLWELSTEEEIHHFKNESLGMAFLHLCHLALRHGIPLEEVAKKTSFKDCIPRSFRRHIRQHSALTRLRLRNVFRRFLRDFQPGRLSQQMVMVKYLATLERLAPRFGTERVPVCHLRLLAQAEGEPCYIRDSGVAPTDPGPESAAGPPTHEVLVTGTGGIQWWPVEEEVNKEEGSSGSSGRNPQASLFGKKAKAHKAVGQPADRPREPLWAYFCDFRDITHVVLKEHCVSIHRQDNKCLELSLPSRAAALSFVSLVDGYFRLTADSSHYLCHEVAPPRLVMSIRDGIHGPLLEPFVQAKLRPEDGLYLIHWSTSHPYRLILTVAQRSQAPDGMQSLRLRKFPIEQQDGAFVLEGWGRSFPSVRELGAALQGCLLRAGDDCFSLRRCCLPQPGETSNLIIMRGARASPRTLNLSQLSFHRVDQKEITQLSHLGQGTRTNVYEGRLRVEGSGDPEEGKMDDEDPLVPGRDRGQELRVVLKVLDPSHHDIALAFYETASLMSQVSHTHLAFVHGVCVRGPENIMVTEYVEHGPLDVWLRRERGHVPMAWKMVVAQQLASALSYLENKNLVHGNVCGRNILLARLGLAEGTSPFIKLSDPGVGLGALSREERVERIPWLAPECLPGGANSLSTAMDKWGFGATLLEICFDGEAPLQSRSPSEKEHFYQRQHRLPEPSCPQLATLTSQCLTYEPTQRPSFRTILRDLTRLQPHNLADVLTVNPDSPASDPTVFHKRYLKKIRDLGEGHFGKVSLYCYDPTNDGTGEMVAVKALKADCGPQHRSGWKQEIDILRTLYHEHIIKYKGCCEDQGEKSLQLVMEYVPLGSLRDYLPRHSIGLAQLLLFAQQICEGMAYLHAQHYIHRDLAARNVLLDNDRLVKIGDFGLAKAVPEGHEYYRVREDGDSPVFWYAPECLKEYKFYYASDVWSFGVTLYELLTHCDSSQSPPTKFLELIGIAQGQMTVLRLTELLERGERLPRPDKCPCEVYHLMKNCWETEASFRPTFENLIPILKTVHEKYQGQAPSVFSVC
- test.protocol: TYK2 degradation MSD assay in EBV-B cells
- Type: cell-based
- Design: endogenous in cells; host or cells: EBV-B cells
- assay.setup: 4 to 24 hours incubation, read-out: TYK2 MSD DC50 rating in EBV-B
property: DC50

State, in one line, measured DC50 of CNc1cc(-c2ccc(N3CCC(CN4CCN(c5ccc(-c6ccc7c(c6)n(C)c(=O)n7C6CCC(=O)NC6=O)cc5)CC4)CC3)cc2)nn2c(C(=O)N[C@@H]3C[C@@H]3F)cnc12 (mixture of isomers) [Example K545]
> 100 nM

State, in one line, measured DC50 of CNc1cc(Nc2cccn(-c3cccc(C(=O)NCCOCCOCCOCCOCCOCCOCCc4ccc5c(c4)n(C)c(=O)n5C4CCC(=O)NC4=O)c3)c2=O)nn2c(C(=O)N[C@@H]3C[C@@H]3F)cnc12 (stereo partly drawn) [Example K243]
> 100 nM

State, in one line, measured DC50 of CNc1cc(Nc2cccc(CN3CC4(CCN(c5ccc6c(c5)n(C)c(=O)n6C5CCC(=O)NC5=O)CC4)C3)c2)nn2c(C(=O)NC3CC3)cnc12 (stereo not drawn) [Example K614]
> 100 nM
